# System: SK-MEL-28
# assay_procedure: NCI tumour cell line growth inhibition, 48 h
Active and inactive are the calls of the source. No stated cut-off is given here; in the data, active = GI50 up to about 1.1 µM and inactive = higher.
property_label: GI50

                                   compound                result
0  O=C(CC(=O)N1N=C(c2ccccc2)C(/N=N/c2ccc(C(=O)O)cc2)C1=O)Nc1ccc(F)cc1 (stereo not given)    38.3 µM (inactive)
1  COc1cc(C2C3C=CC=C4CC=CC(=C43)C3CCC(=O)N32)cc(OC)c1OC (stereo not given)   > 100 µM (inactive)
2  COc1cc2cc(C(=O)N3CC(CCl)c4ccc(NCCN)cc43)[nH]c2c(OC)c1OC (stereo not given)     0.249 µM (active)
3  CCOC(=O)N(CC)c1c(C(F)(F)F)cc(-c2ccccc2)[nH]c1=O    70.6 µM (inactive)
4         Sc1nnc(COc2ccc(Cl)cc2)n1-c1ccccc1   > 100 µM (inactive)
5                 Cc1cccc(/C=N/N=C(\N)NO)n1   > 100 µM (inactive)
6  C/C=C1/CCC2c3[nH]c4ccccc4c3CCN2C1 (stereo not given)   > 100 µM (inactive)
7          O=S1(=O)c2ccccc2NC(=S)N1c1ccccc1  > 89.9 µM (inactive)
8  COc1cc2c(c(OC)c1OC)-c1ccc(SC)cc1C(O)CC2 (stereo not given)    55.6 µM (inactive)
9  CCOC(=O)C(C)N1C(=O)c2ccccc2S1(=O)=O (stereo not given)   > 100 µM (inactive)

====

# Test system: UACC-62
# assay_procedure: NCI tumour cell line growth inhibition, 48 h
Calls of active or inactive are those of the source. Rule as the data show it: active = GI50 up to about 1.1 µM and inactive = higher.
Labels: yes (active), no (inactive)

>>> df
                                    molecule  qualitative_label
 0  CC(C)C1=C2CCC3(C)C(CCC4C5C6OCC5(CCC6(C)C)CCC43C)C2(C)CC1 (stereo unspecified)                 no
 1  O=C1OC(c2ccccc2)=N/C1=C/NC(Cc1c[nH]cn1)C(=O)O (stereo unspecified)                 no
 2  O=C1CS(=O)(=O)C(c2cccc(Oc3ccccc3)c2)N1c1ccc(Cl)cc1 (stereo unspecified)                 no
 3        O=C(O)CCc1nc(-c2ccccc2-n2cccc2)no1                 no
 4  CC(C)(C)OC(=O)CN1C(=O)CC1CC(=O)c1ccccc1 (stereo unspecified)                 no
 5  CCOC(=O)c1c(C)n(-c2ccc(C)cc2)c2c1cc(O)c1[nH]c3c(c12)CCCC3                 no
 6  C=C1C(=O)OC2C[C@H](C)C3CC(=O)C(C)=C3CC12 (stereo partly specified)                 no
 7  CC(C)(C)N(Cc1ccccc1)C(=O)/C=C\[S+]([O-])c1ccccc1 (stereo unspecified)                 no
 8                Cc1cc(Oc2cnc(=O)[nH]c2)cs1                 no
 9                OCc1cn(Cc2ccccc2)c2ccccc12                yes
10  CC(C)(C)OC(=O)C#CC[C@H]1CCCC1/C=C/C(O)=C1/C(=O)NC(CCCNC(=O)OC(C)(C)C)C1=O (stereo partly specified)                 no

====

# Tested on: SK-OV-3
# assay_procedure: NCI tumour cell line growth inhibition, 48 h
The source made the active and inactive calls. No stated cut-off is given here; in the data, active = GI50 up to about 1.1 µM and inactive = higher.

molecule	GI50
O=S(=O)(Nc1ccccc1S(=O)(=O)c1ccccc1)c1ccccc1	> 100 µM (inactive)
CC(C)(C)n1c(=O)[nH]n(C2NN=Cc3cccc4cccc2c34)c1=O (configuration not stated)	50 µM (inactive)
CC1=C/C(=N\NS(=O)(=O)c2ccc([N+](=O)[O-])cc2)CC(C)(C)C1	> 100 µM (inactive)
COc1cc(S(=O)(=O)Nc2ccc(-c3csc(N4C(=O)CSC4c4cccc(Oc5ccccc5)c4)n3)cc2)ccc1Cl (configuration not stated)	71 µM (inactive)
Cc1nc2c(=O)[nH]c3ccc(Cl)cc3c2o1	> 100 µM (inactive)
CC/C(=C(\c1ccccc1)c1ccc(OCC[N+](C)(C)C)cc1)c1ccccc1 [TAMOXIFEN METHYL IODIDE]	17.5 µM (inactive)
COc1cc(OC)c2c(=O)c3cccc([N+](=O)[O-])c3n(C)c2c1	> 100 µM (inactive)
CCOC(=O)C(SCCO)C(C(=O)OCC)n1ccc(N)nc1=O (configuration not stated)	> 100 µM (inactive)
N#Cc1cc(C#N)c(N)nc1N	> 100 µM (inactive)
[N-]=[N+]=Nc1ccccc1-[n+]1noc([O-])c1Br	> 100 µM (inactive)
O=c1c2ccccc2[se]n1-c1cccnc1	> 100 µM (inactive)
COc1cccc2c1C1(O)C2CCCC12OCCCO2 (configuration not stated)	> 100 µM (inactive)
C=C1C(=O)OC2C[C@H](C)C3CC(=O)C(C)=C3CC12 (some centres not stated)	> 57 µM (inactive)
CSc1c(C(N)=S)c(N)nn1-c1ccccc1	> 100 µM (inactive)
O=C(CO)CC(=O)C(=O)Nc1cccc(C(F)(F)F)c1	> 100 µM (inactive)
C=CCOC(=O)CC[C@H](NC(=O)[C@@H](CCC(F)(F)F)Cc1ccc(O)cc1)C(=O)OCC=C	> 100 µM (inactive)
COC(=O)[C@H](CCSC)NC(=O)N[C@H](C)c1ccccc1	> 100 µM (inactive)
COC(=O)C(N)CCCC(N)C(=O)NC(C)C(=O)NC(CCC(=O)NCCCNc1ccc([N+](=O)[O-])c2[nH]c3ccccc3c(=O)c12)C(N)=O (configuration not stated)	11.4 µM (inactive)
CCCCC(C(=O)C(=O)Nc1ccccc1CC)C(=O)C(C)C (configuration not stated)	> 100 µM (inactive)
OCc1cn(Cc2ccccc2)c2ccccc12	11 µM (inactive)
Cc1cc(-c2ccccc2)nc(Nc2cc3ccccc3[nH]2)n1	> 100 µM (inactive)
O=C(CCc1cc(-c2ccco2)n(-c2ccc([N+](=O)[O-])cc2[N+](=O)[O-])n1)Nc1ccccc1	> 100 µM (inactive)

====

# Test system: SF-295
# assay_procedure: NCI tumour cell line growth inhibition, 48 h
The source made the active and inactive calls. Rule as the data show it: active = GI50 up to about 1.1 µM and inactive = higher.
Outcome codes: active, inactive

In [3]: df
Out[3]:
                                   compound  qualitative_label
0  N#Cc1c(N)nc(SCc2ccccc2)c(C#N)c1-c1ccc(O)cc1           inactive
1            CCCCCCCC/C=C\CCCCCCCCCCCC(=O)O           inactive
2  CC[C@@]1(O)C(=O)OCc2c1cc1n(c2=O)Cc2c-1nc1ccccc1c2/C=N\NC(=O)C(N)Cc1ccc(O)cc1 (stereo not given in full)             active
3  COc1ccc(C2=C(OC(C)=O)c3cccn3-c3ccc(Cl)cc3S2)cc1           inactive
4  CC1=C(O)C(=O)C2C(=O)C1C(C)C2c1ccc(Cl)cc1 (stereo not given)           inactive

====

# System: SK-OV-3
# assay_procedure: NCI tumour cell line growth inhibition, 48 h
The source made the active and inactive calls. No stated cut-off is given here; in the data, active = GI50 up to about 1.1 µM and inactive = higher.
Outcome codes: true (1) (active), false (0) (inactive)

compound	qualitative_label
COc1cc(OC)nc(NC(=O)NS(=O)(=O)c2cccc3ncn(C)c(=O)c23)n1	false (0)
O=C1OC(c2ccccc2)=N/C1=C/NC(Cc1c[nH]cn1)C(=O)O (centres undefined)	false (0)
COc1ccc2c(c1)C(=O)CCc1cc(OC)c(OC)c(OC)c1-2	true (1)
CN1CCc2c1nc(-c1ccc(Cl)cc1)c1c2N(C)CC1	false (0)
COC(=O)[C@H](Cc1ccccc1)NC(=O)[C@H](Cc1ccccc1)NC(=O)[C@@H]1CCCN1C(=O)N[C@H]1C2C=CC(C2)C1C(=O)N1CCC[C@H]1C(=O)N[C@@H](C)C(=O)N[C@H](C(=O)OC)C(C)C (some centres undefined)	false (0)
O=C1C=CC(=O)[C@H]2C3C=CC(C4C3C3(Cl)C(Cl)=C(Cl)[C@]4(Cl)C3(Cl)Cl)[C@@H]12 (some centres undefined)	false (0)
CC(=C\c1ccccc1)/C=C(\C#N)C(N)=O	false (0)
CCOC(=O)c1c(CN2CCOCC2)n(Cc2ccccc2)c2c1cc(O)c1nc(C)c(C)nc12	false (0)
CN(C)C(=S)C(Cl)(c1ccccc1)c1ccccc1	false (0)

====

# System: 786-0
# assay_procedure: NCI tumour cell line growth inhibition, 48 h
Calls of active or inactive are those of the source. No stated cut-off is given here; in the data, active = GI50 up to about 1.1 µM and inactive = higher.
GI50 overview
property_label: GI50

In [3]: df
Out[3]:
                                    compound               result
 0  Cc1cccc(C(C)(C)C)c1NC(=O)CC1C(=O)Nc2ccccc2[S+]1[O-] (stereo unspecified)  > 100 µM (inactive)
 1  O=C(CSCC(=O)N/N=C\c1ccc(-c2ccccc2)cc1)N/N=C\c1ccc(-c2ccccc2)cc1   33.2 µM (inactive)
 2  O=C1CS(=O)(=O)C(c2cccc(Oc3ccccc3)c2)N1c1ccc(Cl)cc1 (stereo unspecified)   16.5 µM (inactive)
 3    CC1=C(C)C(=O)c2c(cc3c4ccccc4ccn23)C1=O  > 100 µM (inactive)
 4  O=C1CC(c2ccccc2)n2c(nc3ccccc32)N1 (stereo unspecified)   74.8 µM (inactive)
 5              CCOC(=O)CCSS(=O)(=O)c1ccccc1     26 µM (inactive)
 6  Cc1cc2c(cc1C)N1C(Cl)=C3CCCCC3=C(C#N)C1N2 (stereo unspecified)   1.92 µM (inactive)
 7         CS(=O)(=O)c1nc(Cl)c(Cl)c(C#N)c1Cl   1.94 µM (inactive)
 8             CC(=O)Nc1c(C)cc(OCC(=O)O)cc1C  > 100 µM (inactive)
 9  COc1cc(CC(=O)c2cc3c(cc2-c2ccccc2)OCO3)cc(OC)c1OC  > 100 µM (inactive)
10  O=c1oc2ccccc2c(O)c1C1c2c(c3ccccc3oc2=O)Oc2c1c(=O)oc1ccccc21   43.1 µM (inactive)
